What follows is a collection of pIC50 values obtained with Urease (Canavalia ensiformis, UniProt P07374).
Sequence (P07374 whole entry): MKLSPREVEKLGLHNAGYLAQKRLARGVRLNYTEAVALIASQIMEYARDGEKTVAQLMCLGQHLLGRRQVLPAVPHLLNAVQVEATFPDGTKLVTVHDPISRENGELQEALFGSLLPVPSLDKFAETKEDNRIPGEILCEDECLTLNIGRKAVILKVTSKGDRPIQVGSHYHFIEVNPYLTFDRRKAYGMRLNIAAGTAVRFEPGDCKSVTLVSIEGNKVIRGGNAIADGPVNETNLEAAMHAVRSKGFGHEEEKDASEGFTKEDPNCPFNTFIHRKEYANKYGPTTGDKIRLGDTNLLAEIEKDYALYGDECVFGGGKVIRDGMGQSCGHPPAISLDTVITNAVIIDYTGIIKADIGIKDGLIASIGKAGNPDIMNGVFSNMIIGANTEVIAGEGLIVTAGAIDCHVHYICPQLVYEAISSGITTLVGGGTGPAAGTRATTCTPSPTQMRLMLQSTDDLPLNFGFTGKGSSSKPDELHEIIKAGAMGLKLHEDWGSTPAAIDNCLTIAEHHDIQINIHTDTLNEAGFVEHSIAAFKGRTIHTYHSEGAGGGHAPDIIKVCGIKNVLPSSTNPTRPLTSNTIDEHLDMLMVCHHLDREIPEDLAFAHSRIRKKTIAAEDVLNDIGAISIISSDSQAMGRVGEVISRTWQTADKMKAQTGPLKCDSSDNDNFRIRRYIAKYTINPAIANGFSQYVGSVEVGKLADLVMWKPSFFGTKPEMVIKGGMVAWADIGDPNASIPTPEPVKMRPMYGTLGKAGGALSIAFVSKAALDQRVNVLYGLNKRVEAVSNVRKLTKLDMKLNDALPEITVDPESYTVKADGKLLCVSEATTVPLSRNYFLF
pIC50: −log10 of the molar value.
experimental-endpoint: pIC50

1. Cc1ccc(Nc2nnc(C(O)c3ccccc3)o2)cc1 (stereo unspecified): 4.79
2. Cc1ccc(-n2c(C(O)c3ccccc3)n[nH]c2=S)cc1 (stereo unspecified): 4.78
3. OC(c1ccccc1)c1n[nH]c(=S)n1-c1ccc(Cl)cc1 (stereo unspecified): 4.72
4. OC(c1ccccc1)c1n[nH]c(=S)n1-c1ccc(Br)cc1 (stereo unspecified): 4.49
5. O=[N+]([O-])c1ccc(Nc2nnc(C(O)c3ccccc3)o2)cc1 (stereo unspecified): 4.10
6. O=[N+]([O-])c1ccc(-n2c(C(O)c3ccccc3)n[nH]c2=S)cc1 (stereo unspecified): 3.88
